Test system: IL-1β release upon NLRP3 activation in peripheral blood mononuclear cells (PBMC)
Experiment: PBMC IC50 determination assay: inhibition of IL-1β release upon NLRP3 activation
Assay type: cell-based
Settings: PBMC, PBMC primed with LPS 3 h, compound 30 min, stimulated with ATP (5 mM) or nigericin (10 μM) 1 h; IL-1β by ELISA (Protocol A) or HTRF (Protocol B)
Listed here: items and their measured IC50.

Examples with their reported IC50 follow.
test_smiles=CC(C)c1nn(CC(=O)N[C@H]2C[C@@](C)(O)C2)c(=O)c2cn(C(C)C)nc12 outcome_measure=IC50 recorded_value="1000 to 3000 nM"
test_smiles=CCc1nn(CC(=O)NC2CC3(COC3)C2)c(=O)c2cn(CC)nc12 outcome_measure=IC50 recorded_value="10000 to 50000 nM"
test_smiles=Cc1cc2c(C)nn(CC(=O)Nc3ncccn3)c(=O)c2s1 outcome_measure=IC50 recorded_value="1000 to 3000 nM"
test_smiles=CCc1ccc2c(=O)n(CC(=O)Nc3ncccn3)nc(C(C)C)c2n1 outcome_measure=IC50 recorded_value="100 to 1000 nM"

Would you kindly look at the next entry?
Exercise: Please report the recorded IC50 for COCCNc1cc2c(C(C)C)nn(CC(=O)Nc3ncccn3)c(=O)c2s1 .
Solution: 10000 to 50000 nM
